# TARGET_UNDER_TEST: Cdk9/cyclinT1 (Homo sapiens)
# Sequence (P50750 whole entry): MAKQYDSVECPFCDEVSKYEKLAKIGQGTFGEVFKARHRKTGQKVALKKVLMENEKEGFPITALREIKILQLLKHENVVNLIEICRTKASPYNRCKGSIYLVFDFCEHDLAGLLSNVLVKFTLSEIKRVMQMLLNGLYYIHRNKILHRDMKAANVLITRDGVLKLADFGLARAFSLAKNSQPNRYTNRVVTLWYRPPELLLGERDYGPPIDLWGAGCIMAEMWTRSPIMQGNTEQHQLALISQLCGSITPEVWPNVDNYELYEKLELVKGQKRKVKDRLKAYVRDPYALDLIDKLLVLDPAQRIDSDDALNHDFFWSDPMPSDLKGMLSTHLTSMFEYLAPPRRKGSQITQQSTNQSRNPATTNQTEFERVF
# Sequence (O60563 whole entry partner): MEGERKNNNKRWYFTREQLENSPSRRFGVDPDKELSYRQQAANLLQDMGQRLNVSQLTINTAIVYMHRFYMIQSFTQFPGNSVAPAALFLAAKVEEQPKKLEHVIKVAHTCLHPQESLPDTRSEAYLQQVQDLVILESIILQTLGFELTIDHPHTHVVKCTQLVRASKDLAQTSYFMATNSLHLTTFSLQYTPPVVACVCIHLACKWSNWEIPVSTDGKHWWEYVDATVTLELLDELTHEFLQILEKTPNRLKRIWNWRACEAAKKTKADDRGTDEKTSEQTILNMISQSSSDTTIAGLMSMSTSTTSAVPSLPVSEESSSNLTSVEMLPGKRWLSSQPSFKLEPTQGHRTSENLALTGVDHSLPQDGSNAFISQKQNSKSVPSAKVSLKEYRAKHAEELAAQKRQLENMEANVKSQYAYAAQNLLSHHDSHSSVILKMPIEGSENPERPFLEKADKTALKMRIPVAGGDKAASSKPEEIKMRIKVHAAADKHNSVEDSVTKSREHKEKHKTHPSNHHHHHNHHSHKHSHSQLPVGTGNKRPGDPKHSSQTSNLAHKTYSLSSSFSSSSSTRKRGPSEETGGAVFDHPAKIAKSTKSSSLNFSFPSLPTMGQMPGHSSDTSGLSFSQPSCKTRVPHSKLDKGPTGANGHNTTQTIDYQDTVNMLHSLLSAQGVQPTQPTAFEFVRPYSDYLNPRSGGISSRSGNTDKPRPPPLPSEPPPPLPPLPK
# MEASUREMENT_DESCRIPTION: Cdk9/CyclinT1 IMAP assay
OBSERVED_PROPERTY: IC50

Give the reported IC50 for O[C@H]1CC[C@@H](Nc2cc(-c3cc(NCC4CCOCC4)cnc3Cl)c(Cl)cn2)CC1 [Compound 17] (system: Cdk9/cyclinT1 (Homo sapiens)).
25 nM

More entries:
Give the reported IC50 for COCCN[C@H]1CC[C@H](Nc2cc(-c3cnc(Cl)c(NCC4CCOCC4)c3)c(Cl)cn2)CC1 [Compound 78] (system: Cdk9/cyclinT1 (Homo sapiens)).
< 8 nM

Give the reported IC50 for N[C@H]1CC[C@H](Nc2cc(-c3cc(NCC4CCOCC4)cnc3Cl)c(Cl)cn2)CC1 [Compound 79] (system: Cdk9/cyclinT1 (Homo sapiens)).
< 8 nM

Give the reported IC50 for OCC(CO)Nc1cc(-c2cncc(NCc3cccc(F)c3)c2)c(Cl)cn1 [Compound 59] (system: Cdk9/cyclinT1 (Homo sapiens)).
130 nM

Give the reported IC50 for Cc1cccc(CNc2cncc(-c3cc(N[C@H]4CC[C@H](N)CC4)ncc3Cl)c2)c1 [Compound 34] (system: Cdk9/cyclinT1 (Homo sapiens)).
< 8 nM

Give the reported IC50 for COCCN[C@H]1CC[C@H](Nc2cc(-c3cncc(NCc4cccc(F)c4)c3)c(Cl)cn2)CC1 [Compound 82] (system: Cdk9/cyclinT1 (Homo sapiens)).
< 8 nM

Give the reported IC50 for OC[C@H]1CC[C@H](Nc2cc(-c3cnc(Cl)c(NCC4CCOCC4)c3)c(Cl)cn2)CC1 [Compound 80] (system: Cdk9/cyclinT1 (Homo sapiens)).
< 8 nM

Give the reported IC50 for N[C@H]1CC[C@H](Nc2cc(-c3cncc(NCc4cccc(Cl)c4)c3)c(Cl)cn2)CC1 [Compound 42] (system: Cdk9/cyclinT1 (Homo sapiens)).
< 8 nM
